test: recombinant barcode read abundance after kanamycin selection (control-corrected) (log10(CPM+1)); higher = more efficient recombination; sequences stand for … in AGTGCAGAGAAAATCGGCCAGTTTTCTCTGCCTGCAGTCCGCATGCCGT…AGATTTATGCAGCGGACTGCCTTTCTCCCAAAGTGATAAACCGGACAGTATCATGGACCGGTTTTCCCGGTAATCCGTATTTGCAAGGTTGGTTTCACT; site = the 11-nt target;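 also: IS621 recombinase and bridge RNA in Escherichia coli cells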
Listed below: recombinant barcode read abundance (log10) values for each entry.
// no unit, no text: just the number

{"residue.string": "TGCCGAACTTGGGTTCTAACCTGTTGCCT (site TGCCGAACTAG)", "reported": 0.161}
{"residue.string": "TGTTCTACTTGGGTTCTAACCTGTTGCTT (site TGATCTACTAA)", "reported": 0.0326}
{"residue.string": "GCCATTACTTGGGTTCTAACCTGTTGCCT (site GCCATTACTAG)", "reported": 0.0923}
{"residue.string": "TAGCTCCCTTGGGTTCTAACCTGTTGCCG (site TAGCTCCCTCG)", "reported": 1.43}

Query: Requested field: recombinant barcode read abundance (log10). Item: CAAACAACTTGGGTTCTAACCTGTTGCCT (site CAAACAGCTAG)
Response: 0.101

Query: Requested field: recombinant barcode read abundance (log10). Item: CCGGGTTCTTGGGTTCTAACCTGTTGCCT (site CAGGGTTCTAG)
Response: 0.145

Query: Requested field: recombinant barcode read abundance (log10). Item: TACGCTCCTTGGGTTCTAACCTGTTGCTT (site TACGCTCCTAT)
Response: 0.017

Query: Requested field: recombinant barcode read abundance (log10). Item: GTACGCTCTTGGGTTCTAACCTGTTGCTT (site GTACGCTCTAA)
Response: 0.218

Query: Requested field: recombinant barcode read abundance (log10). Item: CGTTTCCCTTGGGTTCTAACCTGTTGCAG (site CGTTTCCCTAC)
Response: 0.152

Query: Requested field: recombinant barcode read abundance (log10). Item: TCGCGTCCTTGGGTTCTAACCTGTTGCCG (site TCGCGTCCTCG)
Response: 1.41
